Sourced from PubChem BioAssay (NCI)

Test system: NCI-H460 lung
experiment.notes: NCI tumour cell line growth inhibition, 48 h
value.kind: TGI (µM)
The figure you give is taken to be in µM; do not add the unit.

Lookup: Can you share its TGI? I mean this molecule: O=C(Nc1ccc(Oc2cccc(Cl)c2)c(Cl)c1)c1cccnc1
Found: 19.1

Lookup: Entry under review: CO/C=C(/C(=O)OC)c1ccccc1[C@H]1C[C@@H]1c1ccccc1 . Reported TGI?
Found: 88.6

Lookup: Item COc1ccc(Nc2ccnc3cc(Cl)ccc23)cc1CN(CCCl)CCCl has what recorded TGI?
Found: 2.96

Lookup: Endpoint output: TGI of CC(=O)O[C@H]1CC[C@]2(C=O)[C@H]3CC[C@]4(C)[C@@H](C5=CC(=O)OC5)CC[C@]4(O)[C@@H]3CC[C@]2(O)C1 . Value?
Found: 0.274

====

What TGI was measured for each of the following?
Tested on: A549 NSCLC
experiment.notes: NCI tumour cell line growth inhibition, 48 h

Lookup: What measured TGI goes with CC1=NNC(N)=N/C1=C\C(Sc1ccc(Cl)cc1)c1ccc(Cl)cc1Cl (stereo unspecified) ?
Found: 59.4 µM

Lookup: Bench note: what TGI did CCn1c(-c2nonc2N)nc2c(C#CC(C)(C)O)ncc(OCC3CCNCC3)c21 show?
Found: > 25 µM

Lookup: May I ask what TGI has been recorded for Nc1ccc(C(=O)N/C(=C\c2ccc3c(c2)OCO3)c2nc3ccc4c(c3[nH]2)C(=O)c2ccccc2C4=O)cc1 ?
Found: 79.3 µM

Lookup: State the recorded TGI for this entry: COC(=O)C1=C(c2cc(OC)c(OC)c(OC)c2)OC(c2cc(OC)c(OC)c(OC)c2)C1 (stereo unspecified)
Found: > 100 µM

Lookup: # lookup: TGI of N#Cc1nc(-c2ccccn2)c(-c2ccccn2)nc1C#N
Found: 19.8 µM

Lookup: For the compound Nc1nc(Cl)cc(NCC2CC(O)(CO)C2)n1 (stereo unspecified) , what TGI is on record?
Found: > 100 µM

Lookup: What value of TGI has been reported for the following compound? O=C1CCc2c(sc3ncnc(Nc4cccc(Br)c4)c23)C1
Found: 24.5 µM

Lookup: What TGI value was documented for this compound, O=C(/C=C(/C=C/c1csc2ccccc12)OB(F)F)/C=C/c1csc2ccccc12 ?
Found: > 50 µM

Lookup: Entry under review: O=C(N/N=C\c1cc(Br)cc(Br)c1O)N/N=C/c1cc(Br)cc(Br)c1O . Reported TGI?
Found: 14.6 µM

Lookup: Param item = CCC(C)Cn1c(C)nc2c1C(=O)c1ccccc1C2=O (stereo unspecified) ; retrieve measured TGI.
Found: > 100 µM

Lookup: Which TGI is reported for this compound? O=C(Nc1ccccc1C(=O)O)C(=Cc1ccccc1O)NC(=O)c1ccccc1
Found: > 100 µM

Lookup: Entry under review: COc1cc2ccc(C(=O)O)cc2cc1OC . Reported TGI?
Found: > 100 µM

Lookup: What measured TGI goes with N#CC(NNC(=O)c1c(Cl)c(Cl)c(Cl)c(Cl)c1-c1nc2ccc(C(=O)c3ccccc3)cc2[nH]1)c1cccc(Oc2ccccc2)c1 (stereo unspecified) ?
Found: > 100 µM

Lookup: Request the reported TGI associated with O=C1NC(=Nc2ccccc2Cl)SC1C(=O)Nc1ccc([N+](=O)[O-])cc1[N+](=O)[O-] (stereo unspecified)
Found: > 100 µM

Lookup: Reported TGI, compound Cc1cc(C)c(N)c(CO)c1 : ____
Found: > 100 µM

Lookup: Reported TGI for COc1cc(C)c(S(=O)(=O)N(CCCN)OCCCN)c(C)c1C : what is it?
Found: > 100 µM

Lookup: Look up TGI: CC(=O)[O-].CC(=O)[O-].CC(=O)[O-].CC(=O)[O-].CO.CO.CO.[Rh+2].[Rh+2].c1ccc(-c2ccccn2)nc1
Found: > 100 µM

Lookup: Which TGI value is on record for O=C1/C(=C/c2ccccc2)CN(C(=O)Oc2ccccc2)C/C1=C\c1ccccc1 ?
Found: > 100 µM

Lookup: Reported TGI, compound C[S+](C)C1(c2ccccc2)C(=O)c2ccccc2C1=O : ____
Found: 97.7 µM

Lookup: Returns the measured TGI for the input compound. Input: COC(=O)C([O][Ge]([CH3])([CH3])[CH3])c1ccccc1 (stereo unspecified)
Found: > 100 µM

Lookup: Which TGI reading was recorded for the compound c1ccc(-c2nn(-c3ccccc3)[n+](-c3ccccc3-c3ccccc3)n2)cc1 ?
Found: > 100 µM
